# System: Rtkn-GFP reporter in mouse embryonic stem (mES) cells
# assay-details: ToxTracker genotoxicity assay, Rtkn-GFP reporter induction
# condition-label: with S9 rat liver extract; concentration inducing 10% cytotoxicity; 3 h exposure, 24 h recovery

| molecule | Rtkn induction level [fold] |
| --- | --- |
| O=C(NCCCCCCn1c(=O)n(CCCCCCNC(=O)OCCN2CC2)c(=O)n(CCCCCCNC(=O)OCCN2CC2)c1=O)OCCN1CC1 [Comp. Ex. 2] | 2.0 |
| CCCCOCC(CN1CC1)OC(=O)NC1CCC(CC2CCC(NC(=O)OC(COCCCC)CN3CC3)CC2)CC1 (stereo not drawn) [Comp. Ex 4] | 1.1 |
| CCCCOCC(CN1CC1)OC(=O)NCCCCCC/N=c1\oc(=O)n(CCCCCCNC(=O)OC(COCCCC)CN2CC2)c(=O)n1CCCCCCNC(=O)OC(COCCCC)CN1CC1 (stereo not drawn) [Ex. 5] | 1.0 |
| CCCCOCC(CN1CC1)OC(=O)NCCCCCCn1c(=O)n(CCCCCCNC(=O)OC(COCCCC)CN2CC2)c(=O)n(CCCCCCNC(=O)OC(COCCCC)CN2CC2)c1=O (stereo not drawn) [Ex. 1] | 1.0 |
| CCCCCCCCCC(=O)OCC(CN1CC1)OC(=O)NCCCCCCn1c(=O)n(CCCCCCNC(=O)OC(COC(=O)CCCCCCCCC)CN2CC2)c(=O)n(CCCCCCNC(=O)OC(COC(=O)CCCCCCCCC)CN2CC2)c1=O (stereo not drawn) [Ex. 3] | 1.3 |
| CC(CN1CC1)OC(=O)NCCCCCCn1c(=O)n(CCCCCCNC(=O)OC(C)CN2CC2)c(=O)n(CCCCCCNC(=O)OC(C)CN2CC2)c1=O (stereo not drawn) [Comp. Ex. 3] | 1.3 |

====

Quick reference: Rtkn induction level of the listed items.
# Tested on: Rtkn-GFP reporter in mouse embryonic stem (mES) cells
# assay-details: ToxTracker genotoxicity assay, Rtkn-GFP reporter induction;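 further: GFP reporter signal quantified solely in intact single cells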
# condition-label: with S9 rat liver extract; concentration inducing 50% cytotoxicity; 3 h exposure, 24 h recovery

| compound | Rtkn induction level (fold) |
| --- | --- |
| CC(CN1CC1)OC(=O)NCCCCCCn1c(=O)n(CCCCCCNC(=O)OC(C)CN2CC2)c(=O)n(CCCCCCNC(=O)OC(C)CN2CC2)c1=O (stereo not drawn) | 2.2 |
| CCCCOCC(CN1CC1)OC(=O)NCCCCCC/N=c1\oc(=O)n(CCCCCCNC(=O)OC(COCCCC)CN2CC2)c(=O)n1CCCCCCNC(=O)OC(COCCCC)CN1CC1 (stereo not drawn) | 1.0 |
| O=C(NCCCCCCn1c(=O)n(CCCCCCNC(=O)OCCN2CC2)c(=O)n(CCCCCCNC(=O)OCCN2CC2)c1=O)OCCN1CC1 | 3.0 |
| CCCCCCCCCC(=O)OCC(CN1CC1)OC(=O)NCCCCCCn1c(=O)n(CCCCCCNC(=O)OC(COC(=O)CCCCCCCCC)CN2CC2)c(=O)n(CCCCCCNC(=O)OC(COC(=O)CCCCCCCCC)CN2CC2)c1=O (stereo not drawn) | 1.5 |
| CCCCOCC(CN1CC1)OC(=O)NCCCCCCn1c(=O)n(CCCCCCNC(=O)OC(COCCCC)CN2CC2)c(=O)n(CCCCCCNC(=O)OC(COCCCC)CN2CC2)c1=O (stereo not drawn) | 1.1 |
| CCCCOCC(CN1CC1)OC(=O)NC1CCC(CC2CCC(NC(=O)OC(COCCCC)CN3CC3)CC2)CC1 (stereo not drawn) | 1.9 |
